# system_tested: T1, human LRP6 construct E1 (amino acids A20-D325) (human, UniProt O75581 20-325)
# T1 construct: range 20-325; In the Fab crystal E1 arose from E1E2 degraded beyond Arg 335; residues Ala20 to Lys324 were traced; also called LRP6 E1; E1 domain
# T1 sequence (looked up): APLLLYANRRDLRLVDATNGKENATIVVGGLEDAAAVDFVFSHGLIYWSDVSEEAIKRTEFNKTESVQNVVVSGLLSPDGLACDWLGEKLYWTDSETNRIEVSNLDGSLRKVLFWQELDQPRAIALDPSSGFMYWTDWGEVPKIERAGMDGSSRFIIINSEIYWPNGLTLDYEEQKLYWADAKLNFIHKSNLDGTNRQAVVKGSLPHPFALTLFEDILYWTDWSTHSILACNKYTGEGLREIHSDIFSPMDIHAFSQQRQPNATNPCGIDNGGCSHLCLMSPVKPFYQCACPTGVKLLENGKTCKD
# method: synthetic peptides, competition IC50 (FIG. 18)
Non-standard residues stand in square brackets, D forms with d. NMeI = CC[C@H](C)[C@H](NC)C(=O)O; NMeK = CN[C@@H](CCCCN)C(=O)O; NMeS = CN[C@@H](CO)C(=O)O
measurement_type: binding result

| binder | binding result |
| --- | --- |
| Ac-NSI[NMeK]GY-NH2 (SMILES CC[C@H](C)[C@H](NC(=O)[C@H](CO)NC(=O)[C@H](CC(N)=O)NC(C)=O)C(=O)N(C)[C@@H](CCCCN)C(=O)NCC(=O)N[C@@H](Cc1ccc(O)cc1)C(N)=O) [Ac-NSIKGY-am with an Nα-methyl amino acid at the K position] | no binding |
| Ac-NSIKGY-NH2 (also called minimized analogue of the Dkk1 peptide; Lys parent) [Ac-NSIKGY-am] | binds |
| Ac-NS[NMeI]KGY-NH2 (SMILES CC[C@H](C)[C@@H](C(=O)N[C@@H](CCCCN)C(=O)NCC(=O)N[C@@H](Cc1ccc(O)cc1)C(N)=O)N(C)C(=O)[C@H](CO)NC(=O)[C@H](CC(N)=O)NC(C)=O) [Ac-NSIKGY-am with an Nα-methyl amino acid at the I position] | no binding |
| Ac-NSEKGY-NH2 [Ac-NSIKGY-am with Glu in place of Ile] | no binding |

// binding result lookup, binder = Ac-QSIKGY-NH2 [Ac-NSIKGY-am with Gln in place of Asn] , result: no binding

// binding result lookup, binder = Ac-N[NMeS]IKGY-NH2 (SMILES CC[C@H](C)[C@H](NC(=O)[C@H](CO)N(C)C(=O)[C@H](CC(N)=O)NC(C)=O)C(=O)N[C@@H](CCCCN)C(=O)NCC(=O)N[C@@H](Cc1ccc(O)cc1)C(N)=O) [Ac-NSIKGY-am with an Nα-methyl amino acid at the S position] , result: no binding
